EXPERIMENT SUMMARY: Hematology assays in cynomolgus monkeys (Example 46)
Type: in vivo
COND: Day 17
Strand notation (5' to 3'): a small letter for the sugar, then the base; units joined by * are phosphorothioate-linked, units joined directly phosphodiester-linked; [ ] holds rarer units or linkages, { } end groups; capitals alone tell only the bases. e = 2'-O-(2-methoxyethyl) (MOE); [5mC] = 5-methylcytosine; d = 2'-deoxy (DNA)
RESULT TYPE: HCT (%)
I only need the number, in %, no unit after it.

Per the record, ISIS 449707: 3-8-3, 4-8-4, 2-10-2, 3-10-3 or 4-10-4 MOE microwalk gapmer (Table 46) (antisense e[5mC]*eA*e[5mC]*eA*dG*dT*dT*dT*d[5mC]*dT*dG*dG*e[5mC]*eA*eG*eG) has HCT of 42

Notebook: ISIS 445531: 5-8-5 or 6-8-6 MOE microwalk gapmer (Table 44) (antisense eG*eG*e[5mC]*eA*eT*dT*dG*dG*dT*dG*d[5mC]*dA*d[5mC]*eA*eG*eT*eT*eT) , HCT read as 43

The reported value for ISIS 416850: MOE gapmer, nucleobases 1275 to 1318 of SEQ ID NO: 1 (Table 8) (antisense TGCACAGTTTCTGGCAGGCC; MOE gapmer, wing and gap sizes not given here) in terms of HCT is 42

So for ISIS 449709: 3-8-3, 4-8-4, 2-10-2, 3-10-3 or 4-10-4 MOE microwalk gapmer (Table 46) (antisense eG*e[5mC]*eA*e[5mC]*dA*dG*dT*dT*dT*d[5mC]*dT*dG*dG*d[5mC]*eA*eG*eG*e[5mC]) , the logged HCT turned out to be 43

Memo: ISIS 445522: 5-8-5 or 6-8-6 MOE microwalk gapmer (Table 44) (antisense eG*e[5mC]*eA*e[5mC]*eA*dG*dT*dT*dT*d[5mC]*dT*dG*dG*e[5mC]*eA*eG*eG*e[5mC]) , reported HCT: 41

Notebook: ISIS 449708: 3-8-3, 4-8-4, 2-10-2, 3-10-3 or 4-10-4 MOE microwalk gapmer (Table 46) (antisense eA*e[5mC]*eA*dG*dT*dT*dT*d[5mC]*dT*dG*dG*e[5mC]*eA*eG) , HCT read as 44

Lab note: measured HCT of ISIS 449711: 3-8-3, 4-8-4, 2-10-2, 3-10-3 or 4-10-4 MOE microwalk gapmer (Table 46) (antisense eA*e[5mC]*dA*dG*dT*dT*dT*d[5mC]*dT*dG*dG*d[5mC]*eA*eG) was 42

Sure, the documented HCT for ISIS 449710: 3-8-3, 4-8-4, 2-10-2, 3-10-3 or 4-10-4 MOE microwalk gapmer (Table 46) (antisense e[5mC]*eA*e[5mC]*dA*dG*dT*dT*dT*d[5mC]*dT*dG*dG*d[5mC]*eA*eG*eG) is 43

For this substance ( ISIS 416858: MOE gapmer, nucleobases 1275 to 1318 of SEQ ID NO: 1 (Table 8) (antisense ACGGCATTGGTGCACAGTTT; MOE gapmer, wing and gap sizes not given here) ), measured HCT is 43
